Target or system: T1, human IL-2 (human, UniProt P60568 21-153, biotin label in the IL2RB blocking assay)
T1 construct: also called biotin-labeled IL-2 (Acro Biosystems IL2-H82E4)
T1 sequence (P60568 21-153 limits assumed): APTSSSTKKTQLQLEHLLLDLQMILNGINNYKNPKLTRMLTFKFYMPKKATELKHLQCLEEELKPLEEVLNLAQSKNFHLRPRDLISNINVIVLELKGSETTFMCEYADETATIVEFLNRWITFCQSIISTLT
Assay procedure: HTRF, IL-2:Fc-IL2RB
Assay metric: IL2RB Blocking (HTRF signal)

PD1-R07-A05 (scFv) scFv: QVQLVQSGAEVKKPGASVKVSCKASGYTFTTYYVHWVRQAPGQGLEWMGIINPSGGSTSYAQNFQGRVTMTRDTSTSTVYMELSSLRSEDTAVYYCASGWDVWGQGTTVTVSSASGGGGSGGGGSGGGGSHASEIVMTQSPATLSVSPGERATLSCRASQSVNTYLAWYQQKPGQAPRLLIYGASTRATGIPARFSGSGSGTEFTLTISSLQSEDFAVYYCQQYGSSPVTFGQGTRLEIK :: 1730
PD1-IL2-R06-E04 (scFv, cell-free expressed, V5-tagged) scFv: QVQLVQSGAEVKKPGASVKVSCKASGYTFTRYYIHWVRQAPGQGLEWMGWINAYNGDTNYAQKLQGRVTMTRDTSTSTVYMELSSLRSEDTAVYYCARDSYYYDSFDYWGQGTLVTVSSASGGGGSGGGGSGGGGSHASDIQMTQSPSSLSASVGDRVTITCRASQTITDWLAWYQQKPGKAPKLLIYGASNLQGGVPSRFSGSGSGTDFTLTISSLQPEDFATYYCQQYYSSWTFGQGTKVEIK :: 1110
PD1-IL2-R02-C02 (scFv, cell-free expressed, V5-tagged) scFv: QVQLVQSGAEVKKPGVSVKVSCKASGYTFPRSYIHWVRQAPGQGLEWMGWINPHSGDTYYAQNFQGRVTMTRDTSTSTVYMELSSLRSEDTAVYYCARDTGLGYYYGSGDFDYWGQGTLVTVSSASGGGGSGGGGSGGGGSHASDIQMTQSPSSLSASVGDRVTITCRASQSISRYLNWYQQKPGKAPKLLIYTASSLQSGVPSRFSGSGSGTDFTLTISSLQPEDFATYYCQQANRFPLTFGPGTKVDIK :: 1070
